This collection of values is drawn from paper PMC8368196.

# test_protocol: Berzosertib plasma and urine pharmacokinetics (LC-MS/MS, non-compartmental analysis)
# Assay type: in vivo, human
# applied_conditions: human, iv, 18 mg/m2; berzosertib 18 mg/m^2 i.v., lead-in period, berzosertib alone; plasma; mean (% CV); n = 3; read-out: Vss
quantity: Vd (L)
Answers are plain numbers, in L.

Fill in the blank: the reported Vd of CNCc1ccc(-c2cc(-c3nc(-c4ccc(S(=O)(=O)C(C)C)cc4)cnc3N)on2)cc1 [Berzosertib] is ____.
1600

* * *

# test_protocol: Berzosertib plasma and urine pharmacokinetics (LC-MS/MS, non-compartmental analysis)
# Assay type: in vivo, human
# applied_conditions: human, iv, 60 mg/m2; berzosertib 60 mg/m^2 i.v., lead-in period, berzosertib alone; plasma; mean (% CV); n = 4
quantity: Cmax (ng/mL)
Answers are plain numbers, in ng/mL.

Fill in the blank: the reported Cmax of CNCc1ccc(-c2cc(-c3nc(-c4ccc(S(=O)(=O)C(C)C)cc4)cnc3N)on2)cc1 is ____.
345

* * *

# test_protocol: Berzosertib plasma and urine pharmacokinetics (LC-MS/MS, non-compartmental analysis)
# Type: in vivo, human
# applied_conditions: human, iv, 210 mg/m2; berzosertib 210 mg/m^2 i.v., lead-in period, berzosertib alone; plasma; mean (% CV); n = 2
# Method: PK assessments for berzosertib were conducted during the monotherapy lead-in and during cycles 1 and 2. […] Berzosertib concentrations were quantified using a validated liquid chromatography tandem-mass spectrometry method and plasma PK was characterised by non-compartmental analyses using Phoenix WinNonlin 6.4 (Certara USA Inc, Princeton, NJ, USA). […]
quantity: clearance (mL/min)
Numbers only, in mL/min.

Fill in the blank: the reported clearance of CNCc1ccc(-c2cc(-c3nc(-c4ccc(S(=O)(=O)C(C)C)cc4)cnc3N)on2)cc1 is ____.
1270

* * *

# test_protocol: Berzosertib plasma and urine pharmacokinetics (LC-MS/MS, non-compartmental analysis)
# Assay type: in vivo, human
# applied_conditions: human, iv, 90 mg/m2; berzosertib 90 mg/m^2 i.v., lead-in period, berzosertib alone; plasma; mean (% CV); n = 6; read-out: Vss
quantity: Vd (L)
Answers are plain numbers, in L.

Fill in the blank: the reported Vd of CNCc1ccc(-c2cc(-c3nc(-c4ccc(S(=O)(=O)C(C)C)cc4)cnc3N)on2)cc1 is ____.
1320

* * *

# test_protocol: Berzosertib plasma and urine pharmacokinetics (LC-MS/MS, non-compartmental analysis)
# Type: in vivo, human
# applied_conditions: human, iv, 36 mg/m2; berzosertib 36 mg/m^2 i.v., lead-in period, berzosertib alone; plasma; mean (% CV); n = 3; read-out: Vss
quantity: Vd (L)
Answers are plain numbers, in L.

Fill in the blank: the reported Vd of CNCc1ccc(-c2cc(-c3nc(-c4ccc(S(=O)(=O)C(C)C)cc4)cnc3N)on2)cc1 is ____.
1280

* * *

# test_protocol: Berzosertib plasma and urine pharmacokinetics (LC-MS/MS, non-compartmental analysis)
# Assay type: in vivo, human
# applied_conditions: human, iv, 72 mg/m2; berzosertib 72 mg/m^2 i.v., lead-in period, berzosertib alone; plasma; mean (% CV); n = 7
quantity: clearance (mL/min)
Give bare numbers, in mL/min.

Fill in the blank: the reported clearance of CNCc1ccc(-c2cc(-c3nc(-c4ccc(S(=O)(=O)C(C)C)cc4)cnc3N)on2)cc1 [Berzosertib] is ____.
1040

* * *

# test_protocol: Berzosertib plasma and urine pharmacokinetics (LC-MS/MS, non-compartmental analysis)
# Type: in vivo, human
# applied_conditions: human, iv, 60 mg/m2; berzosertib 60 mg/m^2 i.v., lead-in period, berzosertib alone; plasma; mean (% CV); n = 4
quantity: AUC(0-inf) (ng·h/mL)
Numbers only, in ng·h/mL.

Fill in the blank: the reported AUC(0-inf) of CNCc1ccc(-c2cc(-c3nc(-c4ccc(S(=O)(=O)C(C)C)cc4)cnc3N)on2)cc1 is ____.
1700

* * *

# test_protocol: Berzosertib plasma and urine pharmacokinetics (LC-MS/MS, non-compartmental analysis)
# Type: in vivo, human
# applied_conditions: human, iv, 210 mg/m2; berzosertib 210 mg/m^2 i.v., lead-in period, berzosertib alone; plasma; mean (% CV); n = 2
quantity: Cmax (ng/mL)
Answers are plain numbers, in ng/mL.

Fill in the blank: the reported Cmax of CNCc1ccc(-c2cc(-c3nc(-c4ccc(S(=O)(=O)C(C)C)cc4)cnc3N)on2)cc1 is ____.
808

* * *

# test_protocol: Berzosertib plasma and urine pharmacokinetics (LC-MS/MS, non-compartmental analysis)
# Assay type: in vivo, human
# applied_conditions: human, iv, 18 mg/m2; berzosertib 18 mg/m^2 i.v., lead-in period, berzosertib alone; plasma; mean (% CV); n = 3
quantity: AUC(0-inf) (ng·h/mL)
Give bare numbers, in ng·h/mL.

Fill in the blank: the reported AUC(0-inf) of CNCc1ccc(-c2cc(-c3nc(-c4ccc(S(=O)(=O)C(C)C)cc4)cnc3N)on2)cc1 is ____.
351

* * *

# test_protocol: Berzosertib plasma and urine pharmacokinetics (LC-MS/MS, non-compartmental analysis)
# Assay type: in vivo, human
# applied_conditions: human, iv, 210 mg/m2; berzosertib 210 mg/m^2 i.v., lead-in period, berzosertib alone; plasma; mean (% CV); n = 2; read-out: Vss
quantity: Vd (L)
Answers are plain numbers, in L.

Fill in the blank: the reported Vd of CNCc1ccc(-c2cc(-c3nc(-c4ccc(S(=O)(=O)C(C)C)cc4)cnc3N)on2)cc1 is ____.
1550

* * *

# test_protocol: Berzosertib plasma and urine pharmacokinetics (LC-MS/MS, non-compartmental analysis)
# Format: in vivo, human
# applied_conditions: human, iv, 72 mg/m2; berzosertib 72 mg/m^2 i.v., lead-in period, berzosertib alone; plasma; mean (% CV); n = 7
# Protocol: PK assessments for berzosertib were conducted during the monotherapy lead-in and during cycles 1 and 2. […] Berzosertib concentrations were quantified using a validated liquid chromatography tandem-mass spectrometry method and plasma PK was characterised by non-compartmental analyses using Phoenix WinNonlin 6.4 (Certara USA Inc, Princeton, NJ, USA). […]
quantity: AUC(0-inf) (ng·h/mL)
One number for each entry, in ng·h/mL.

Fill in the blank: the reported AUC(0-inf) of CNCc1ccc(-c2cc(-c3nc(-c4ccc(S(=O)(=O)C(C)C)cc4)cnc3N)on2)cc1 [Berzosertib] is ____.
2280

* * *

# test_protocol: Berzosertib plasma and urine pharmacokinetics (LC-MS/MS, non-compartmental analysis)
# Type: in vivo, human
# applied_conditions: human, intravenous; part A; urine; read-out: Mean renal clearance (converted)
quantity: CL renal (mL/min)
One number for each entry, in mL/min.

Fill in the blank: the reported CL renal of CNCc1ccc(-c2cc(-c3nc(-c4ccc(S(=O)(=O)C(C)C)cc4)cnc3N)on2)cc1 is ____.
60

* * *

# test_protocol: Berzosertib plasma and urine pharmacokinetics (LC-MS/MS, non-compartmental analysis)
# Format: in vivo, human
# applied_conditions: human, iv, 90 mg/m2; berzosertib 90 mg/m^2 i.v., lead-in period, berzosertib alone; plasma; mean (% CV); n = 6
quantity: clearance
State the value with its unit after it.

Fill in the blank: the reported clearance of CNCc1ccc(-c2cc(-c3nc(-c4ccc(S(=O)(=O)C(C)C)cc4)cnc3N)on2)cc1 is ____.
1240 mL/min

* * *

# test_protocol: Berzosertib plasma and urine pharmacokinetics (LC-MS/MS, non-compartmental analysis)
# Format: in vivo, human
# applied_conditions: human, iv, 72 mg/m2; berzosertib 72 mg/m^2 i.v., lead-in period, berzosertib alone; plasma; mean (% CV); n = 7; read-out: Vss
# Experimental: PK assessments for berzosertib were conducted during the monotherapy lead-in and during cycles 1 and 2. […] Berzosertib concentrations were quantified using a validated liquid chromatography tandem-mass spectrometry method and plasma PK was characterised by non-compartmental analyses using Phoenix WinNonlin 6.4 (Certara USA Inc, Princeton, NJ, USA). […]
quantity: Vd (L)
One number for each entry, in L.

Fill in the blank: the reported Vd of CNCc1ccc(-c2cc(-c3nc(-c4ccc(S(=O)(=O)C(C)C)cc4)cnc3N)on2)cc1 is ____.
1040

* * *

# test_protocol: Berzosertib plasma and urine pharmacokinetics (LC-MS/MS, non-compartmental analysis)
# Format: in vivo, human
# applied_conditions: human, iv, 60 mg/m2; berzosertib 60 mg/m^2 i.v., lead-in period, berzosertib alone; plasma; mean (% CV); n = 4; read-out: t½ (converted)
quantity: half-life (h)
One number for each entry, in h.

Fill in the blank: the reported half-life of CNCc1ccc(-c2cc(-c3nc(-c4ccc(S(=O)(=O)C(C)C)cc4)cnc3N)on2)cc1 is ____.
15

* * *

# test_protocol: Berzosertib plasma and urine pharmacokinetics (LC-MS/MS, non-compartmental analysis)
# Format: in vivo, human
# applied_conditions: human, iv, 140 mg/m2; berzosertib 140 mg/m^2 i.v., lead-in period, berzosertib alone; plasma; mean (% CV); n = 5
quantity: AUC(0-inf) (ng·h/mL)
Give bare numbers, in ng·h/mL.

Fill in the blank: the reported AUC(0-inf) of CNCc1ccc(-c2cc(-c3nc(-c4ccc(S(=O)(=O)C(C)C)cc4)cnc3N)on2)cc1 [Berzosertib] is ____.
4550
